experiment: ATG_TAL_CIS: Attagene CIS-FACTORIAL HepG2 Assay for human TAL Basal Promoter (AID 2282966); conditions: HepG2 Attagene cis-factorial TAL promoter reporter; actives raise or lower the signal;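 note: background control endpoint measuring basal TAL promoter reporter mRNA not a specific factor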
Calls of active or inactive are those of the source. Rule for the calls: active = hit-call score of the fitted dose curve at least 0.9, where 1 is the maximum; inactive = score below 0.9.
Outcomes: 1.0 for active, 0.0 for inactive

>  <Compound>
O=S(=O)(OCCOC(F)(F)F)C(F)(F)F

>  <Label class>
0.0

$$$$
>  <Compound>
O=C(O)C=C(C(F)(F)F)C(F)(F)F

>  <Label class>
0.0

$$$$
>  <Compound>
CCc1c(Br)c(Br)c(Br)c(Br)c1Br

>  <Label class>
0.0

$$$$
>  <Compound>
CCCCCCS

>  <Label class>
0.0

$$$$
>  <Compound>
O=C(O)C(F)(F)C(F)(F)C(F)F

>  <Label class>
0.0

$$$$
>  <Compound>
FC(F)(F)C(F)(F)C(F)(F)C(F)(F)CCI

>  <Label class>
0.0

$$$$
>  <Compound>
O=C(O)C(F)(OC(F)(F)C(F)(OC(F)(F)C(F)(OC(F)(F)C(F)(F)C(F)(F)F)C(F)(F)F)C(F)(F)F)C(F)(F)F (stereo not given)

>  <Label class>
0.0

$$$$
>  <Compound>
O=S(=O)(O)C(F)(F)C(F)(F)C(F)(F)C(F)(F)C(F)(F)C(F)(F)C(F)(F)F

>  <Label class>
0.0

$$$$
>  <Compound>
C=CC(F)(F)C(F)(F)C(F)(F)C(F)(F)C(F)(F)C(F)(F)C(F)(F)C(F)(F)F

>  <Label class>
0.0

$$$$
>  <Compound>
FC(F)(F)C(F)(F)C(F)(F)C(F)(F)C(F)(F)CCI

>  <Label class>
0.0

$$$$
>  <Compound>
N=C(N)C(F)(F)C(F)(F)C(F)(F)C(F)(F)C(F)(F)C(F)(F)C(F)(F)F

>  <Label class>
0.0

$$$$
>  <Compound>
C=CC(=O)OCC(F)(F)C(F)(F)C(F)(F)C(F)(F)COC(=O)C=C

>  <Label class>
0.0

$$$$
>  <Compound>
CNC(=S)NC

>  <Label class>
0.0

$$$$
>  <Compound>
OCC(F)(F)C(F)(F)C(F)(F)F

>  <Label class>
0.0

$$$$
>  <Compound>
CCc1ccc(C(c2ccc(CC)cc2)C(Cl)Cl)cc1

>  <Label class>
0.0

$$$$
>  <Compound>
CCCCCCCCC(F)(F)C(F)(F)C(F)(F)C(F)(F)C(F)(F)C(F)(F)F

>  <Label class>
0.0

$$$$
>  <Compound>
C=CC/C=C/C/C=C/C/C=C/C

>  <Label class>
0.0

$$$$
>  <Compound>
COC(OC(C)=O)c1ccccc1 (stereo not given)

>  <Label class>
0.0

$$$$
>  <Compound>
CC(CCl)OP(=O)(OC(C)CCl)OC(C)CCl (stereo not given)

>  <Label class>
0.0

$$$$
>  <Compound>
O=C(O)C(F)(OC(F)(F)C(F)(OC(F)(F)C(F)(F)C(F)(F)F)C(F)(F)F)C(F)(F)F (stereo not given)

>  <Label class>
0.0

$$$$
>  <Compound>
CC(C)=CCCC(C)CCOC(=O)C(C)C (stereo not given)

>  <Label class>
0.0

$$$$
>  <Compound>
OCC(F)(F)C(F)(F)C(F)(F)C(F)(F)C(F)(F)C(F)(F)F

>  <Label class>
1.0

$$$$
>  <Compound>
FC(F)(F)C(F)(F)C(F)(F)C(F)(F)C(F)(F)C(F)(F)C(F)(F)C(F)(F)CCS

>  <Label class>
0.0

$$$$
>  <Compound>
Nc1ccc(S(=O)(=O)Nc2nccs2)cc1

>  <Label class>
0.0

$$$$
>  <Compound>
OCC(F)(F)C(F)(F)C(F)(F)C(F)F

>  <Label class>
0.0

$$$$
>  <Compound>
FC(F)(F)C(F)(F)CNCC(F)(F)C(F)(F)F

>  <Label class>
0.0

$$$$
>  <Compound>
O=C(CC(=O)C(F)(F)C(F)(F)F)C(F)(F)F

>  <Label class>
0.0

$$$$
>  <Compound>
FC(F)(F)C(F)(F)C(F)(F)N(C(F)(F)C(F)(F)C(F)(F)F)C(F)(F)C(F)(F)C(F)(F)F

>  <Label class>
0.0

$$$$
>  <Compound>
FC(F)(Br)C(F)(F)C(F)(F)C(F)(F)C(F)(F)C(F)(F)Br

>  <Label class>
0.0

$$$$
>  <Compound>
Nc1ccc(Oc2cccc(Oc3ccc(N)cc3)c2)cc1

>  <Label class>
0.0

$$$$
>  <Compound>
OCC(F)(F)C(F)(F)C(F)(F)C(F)(F)C(F)(F)C(F)F

>  <Label class>
0.0

$$$$
>  <Compound>
Oc1ccc(Nc2ccccc2)cc1

>  <Label class>
0.0

$$$$
>  <Compound>
FC(F)(F)C(F)(F)C(F)(F)C(F)(F)C(F)(F)C(F)(F)CC1CO1 (stereo not given)

>  <Label class>
0.0

$$$$
>  <Compound>
CC(C)(C)C(=O)CC(=O)C(F)(F)C(F)(F)C(F)(F)F

>  <Label class>
0.0

$$$$
>  <Compound>
CCCCOCCOCCOC(=O)CCCCC(=O)OCCOCCOCCCC

>  <Label class>
0.0

$$$$
>  <Compound>
FC(F)(F)C(F)(F)C(F)(F)C(F)(F)C(F)(F)C(F)(F)C(F)(F)I

>  <Label class>
0.0

$$$$
>  <Compound>
COC(=O)C1CCC(C(=O)OC)CC1 (stereo not given)

>  <Label class>
0.0

$$$$
>  <Compound>
CCC(=O)OCCc1ccccc1

>  <Label class>
0.0

$$$$
>  <Compound>
CC(C)c1ccccc1N

>  <Label class>
0.0

$$$$
>  <Compound>
c1ccc(-c2ccccc2-c2ccccc2)cc1

>  <Label class>
0.0

$$$$
>  <Compound>
O=C(O)C(F)(F)C(F)(F)C(F)(F)C(F)(F)C(F)(F)C(F)(F)C(F)(F)C(F)(F)C(F)(F)C(F)F

>  <Label class>
0.0

$$$$
>  <Compound>
CC(C)(C)c1ccc(OC2CCCCC2O)cc1 (stereo not given)

>  <Label class>
0.0

$$$$
>  <Compound>
CS(C)(=O)=O

>  <Label class>
0.0

$$$$
>  <Compound>
CC(Cc1ccc(O)c(O)c1)C(C)Cc1ccc(O)c(O)c1 (stereo not given)

>  <Label class>
1.0

$$$$
>  <Compound>
O=C(O)C(F)(F)C(F)(F)C(F)(F)C(F)(F)C(F)(F)C(F)(F)C(F)(F)C(F)(F)C(F)(F)C(F)(F)C(F)(F)C(F)(F)C(F)(F)F

>  <Label class>
0.0

$$$$
>  <Compound>
OC[C@@H](O)[C@@H](O)[C@H](O)[C@@H](O)CO

>  <Label class>
0.0

$$$$
>  <Compound>
CCCCOc1ccc(N)cc1

>  <Label class>
0.0

$$$$
>  <Compound>
CC(C)OC(=O)c1ccccc1C(=O)OC(C)C

>  <Label class>
0.0

$$$$
>  <Compound>
COC(=O)CCC(F)(F)C(F)(F)C(F)(F)C(F)(F)F

>  <Label class>
0.0

$$$$
>  <Compound>
C1COCCN1

>  <Label class>
0.0

$$$$

Measured values drawn from PubChem BioAssay (EPA / NIEHS) for this set.
